- experimentalTarget: Histamine H3 receptor (Rattus norvegicus)
- Sequence (Q9QYN8 whole entry): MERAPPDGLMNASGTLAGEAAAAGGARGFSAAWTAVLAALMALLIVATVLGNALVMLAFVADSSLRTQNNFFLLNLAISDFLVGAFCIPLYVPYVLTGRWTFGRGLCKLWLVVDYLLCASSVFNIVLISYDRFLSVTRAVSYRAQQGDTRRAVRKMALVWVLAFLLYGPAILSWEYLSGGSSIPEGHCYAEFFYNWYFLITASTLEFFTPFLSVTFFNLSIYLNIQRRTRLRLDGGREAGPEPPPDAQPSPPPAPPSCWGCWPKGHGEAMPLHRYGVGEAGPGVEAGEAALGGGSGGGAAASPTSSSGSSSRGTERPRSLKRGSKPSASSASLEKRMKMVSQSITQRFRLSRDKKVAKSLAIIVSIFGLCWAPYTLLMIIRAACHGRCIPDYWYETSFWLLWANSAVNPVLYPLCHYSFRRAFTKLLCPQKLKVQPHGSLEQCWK
- experimentNotes: Binding affinity towards Histamine H3 receptor on synaptosomes from rat cerebral cortex
- Type: subcellular, Brain
I'd be grateful if you could share measured Ki for these entries.

Prompt line: What Ki value was documented for this compound, Ic1ccc(OCCCc2cnc[nH]2)cc1 ?
Response line: 3.16 nM

Prompt line: What do you have for Ic1ccc(CCCOCCCc2c[nH]cn2)cc1 ?
Response line: 7.94 nM

Prompt line: What do you have for O=C(Nc1ccccc1I)OCCCc1cnc[nH]1 ?
Response line: 25.1 nM

Prompt line: What do you have for O=C(OCCCc1c[nH]cn1)c1cccc(I)c1 ?
Response line: 3.98 nM

Prompt line: What do you have for O=C(OCCCc1cnc[nH]1)c1ccccc1I ?
Response line: 20 nM

Prompt line: What do you have for OCCCc1c[nH]cn1 ?
Response line: 631 nM

Prompt line: What do you have for O=C(OCCCc1cnc[nH]1)c1ccc(I)cc1 ?
Response line: 7.94 nM

Prompt line: What do you have for Cc1ccc(C(=O)OCCCc2cnc[nH]2)cc1I ?
Response line: 5.01 nM

Prompt line: What do you have for Ic1ccc(COCCCc2c[nH]cn2)cc1 ?
Response line: 1 nM

Prompt line: What do you have for Nc1c(I)cc(C(=O)OCCCc2cnc[nH]2)cc1I ?
Response line: 31.6 nM

Prompt line: What do you have for Brc1ccc(COCCCc2c[nH]cn2)cc1 ?
Response line: 1.26 nM

Prompt line: What do you have for O=C(Nc1ccc(I)cc1)OCCCc1cnc[nH]1 ?
Response line: 7.94 nM

Prompt line: What do you have for O=C(CCc1ccc(I)cc1)OCCCc1c[nH]cn1 ?
Response line: 79.4 nM

Prompt line: What do you have for O=C(Nc1cccc(I)c1)OCCCc1cnc[nH]1 ?
Response line: 7.94 nM

Prompt line: What do you have for O=C(NCc1ccc(I)cc1)OCCCc1c[nH]cn1 ?
Response line: 12.6 nM

Prompt line: What do you have for Ic1cccc(COCCCc2c[nH]cn2)c1 ?
Response line: 1.26 nM

Prompt line: What do you have for O=C(CCCc1ccc(I)cc1)OCCCc1cnc[nH]1 ?
Response line: 31.6 nM

Prompt line: What do you have for COc1ccc(CCC(=O)OCCCc2cnc[nH]2)cc1I ?
Response line: 200 nM

Prompt line: What do you have for Ic1cccc(OCCCc2cnc[nH]2)c1 ?
Response line: 2.51 nM

Prompt line: What do you have for O=C(Cc1ccc(I)cc1)OCCCc1cnc[nH]1 ?
Response line: 12.6 nM

###

I'd be grateful if you could share measured -Log KB for these entries.
- experimentalTarget: Histamine H1 receptor (Cavia porcellus) (UniProt P31389)
- Sequence (P31389 whole entry): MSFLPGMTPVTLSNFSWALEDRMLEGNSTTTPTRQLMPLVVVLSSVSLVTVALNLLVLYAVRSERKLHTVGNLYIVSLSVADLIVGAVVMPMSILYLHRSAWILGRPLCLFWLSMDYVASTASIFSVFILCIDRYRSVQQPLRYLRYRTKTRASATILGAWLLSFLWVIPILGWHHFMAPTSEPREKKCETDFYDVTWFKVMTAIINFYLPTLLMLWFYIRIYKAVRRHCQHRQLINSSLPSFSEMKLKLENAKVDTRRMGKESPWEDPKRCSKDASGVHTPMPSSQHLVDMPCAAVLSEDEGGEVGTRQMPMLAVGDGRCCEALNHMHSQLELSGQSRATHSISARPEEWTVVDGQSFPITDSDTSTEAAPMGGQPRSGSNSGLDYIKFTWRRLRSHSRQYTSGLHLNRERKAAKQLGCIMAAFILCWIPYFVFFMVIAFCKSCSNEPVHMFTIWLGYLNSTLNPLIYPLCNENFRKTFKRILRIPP
- experimentNotes: […] activity tested against histamine H1 receptor on guinea pig ileum
- Assay type: functional, tissue-based
Lab note: jot down the number only; don't add units.

Prompt line: What -Log KB value was documented for this compound, O=C(CCc1ccc(I)cc1)OCCCc1c[nH]cn1 ?
Response line: 4.8

Prompt line: What do you have for Ic1ccc(CCCOCCCc2c[nH]cn2)cc1 ?
Response line: 5.2

Prompt line: What do you have for O=C(OCCCc1c[nH]cn1)c1ccc(I)cc1 ?
Response line: 4.2

Prompt line: What do you have for Ic1cccc(OCCCc2c[nH]cn2)c1 ?
Response line: 6.2

Prompt line: What do you have for O=C(Nc1ccccc1I)OCCCc1c[nH]cn1 ?
Response line: 4.8

Prompt line: What do you have for O=C(OCCCc1c[nH]cn1)c1cccc(I)c1 ?
Response line: 4.8

Prompt line: What do you have for Ic1ccc(COCCCc2c[nH]cn2)cc1 [IODOPROXYFAN] ?
Response line: 5.8

Prompt line: What do you have for O=C(CCCc1ccc(I)cc1)OCCCc1c[nH]cn1 ?
Response line: 4.8

Prompt line: What do you have for O=C(Nc1ccc(I)cc1)OCCCc1c[nH]cn1 ?
Response line: 4.4

Prompt line: What do you have for Nc1c(I)cc(C(=O)OCCCc2c[nH]cn2)cc1I ?
Response line: 5.9

Prompt line: What do you have for O=C(OCCCc1c[nH]cn1)c1ccccc1I ?
Response line: 5.9

Prompt line: What do you have for Ic1cccc(COCCCc2c[nH]cn2)c1 ?
Response line: 5.8

Prompt line: What do you have for Ic1ccc(OCCCc2c[nH]cn2)cc1 ?
Response line: 6.2

Prompt line: What do you have for Cc1ccc(C(=O)OCCCc2c[nH]cn2)cc1I ?
Response line: 4.9

Prompt line: What do you have for O=C(Cc1ccc(I)cc1)OCCCc1c[nH]cn1 ?
Response line: 4.5

Prompt line: What do you have for O=C(NCc1ccc(I)cc1)OCCCc1c[nH]cn1 ?
Response line: 5.1

Prompt line: What do you have for O=C(Nc1cccc(I)c1)OCCCc1c[nH]cn1 ?
Response line: 5.1
